tested.system: human NaV 1.7 (Homo sapiens)
Sequence (Q15858 whole entry): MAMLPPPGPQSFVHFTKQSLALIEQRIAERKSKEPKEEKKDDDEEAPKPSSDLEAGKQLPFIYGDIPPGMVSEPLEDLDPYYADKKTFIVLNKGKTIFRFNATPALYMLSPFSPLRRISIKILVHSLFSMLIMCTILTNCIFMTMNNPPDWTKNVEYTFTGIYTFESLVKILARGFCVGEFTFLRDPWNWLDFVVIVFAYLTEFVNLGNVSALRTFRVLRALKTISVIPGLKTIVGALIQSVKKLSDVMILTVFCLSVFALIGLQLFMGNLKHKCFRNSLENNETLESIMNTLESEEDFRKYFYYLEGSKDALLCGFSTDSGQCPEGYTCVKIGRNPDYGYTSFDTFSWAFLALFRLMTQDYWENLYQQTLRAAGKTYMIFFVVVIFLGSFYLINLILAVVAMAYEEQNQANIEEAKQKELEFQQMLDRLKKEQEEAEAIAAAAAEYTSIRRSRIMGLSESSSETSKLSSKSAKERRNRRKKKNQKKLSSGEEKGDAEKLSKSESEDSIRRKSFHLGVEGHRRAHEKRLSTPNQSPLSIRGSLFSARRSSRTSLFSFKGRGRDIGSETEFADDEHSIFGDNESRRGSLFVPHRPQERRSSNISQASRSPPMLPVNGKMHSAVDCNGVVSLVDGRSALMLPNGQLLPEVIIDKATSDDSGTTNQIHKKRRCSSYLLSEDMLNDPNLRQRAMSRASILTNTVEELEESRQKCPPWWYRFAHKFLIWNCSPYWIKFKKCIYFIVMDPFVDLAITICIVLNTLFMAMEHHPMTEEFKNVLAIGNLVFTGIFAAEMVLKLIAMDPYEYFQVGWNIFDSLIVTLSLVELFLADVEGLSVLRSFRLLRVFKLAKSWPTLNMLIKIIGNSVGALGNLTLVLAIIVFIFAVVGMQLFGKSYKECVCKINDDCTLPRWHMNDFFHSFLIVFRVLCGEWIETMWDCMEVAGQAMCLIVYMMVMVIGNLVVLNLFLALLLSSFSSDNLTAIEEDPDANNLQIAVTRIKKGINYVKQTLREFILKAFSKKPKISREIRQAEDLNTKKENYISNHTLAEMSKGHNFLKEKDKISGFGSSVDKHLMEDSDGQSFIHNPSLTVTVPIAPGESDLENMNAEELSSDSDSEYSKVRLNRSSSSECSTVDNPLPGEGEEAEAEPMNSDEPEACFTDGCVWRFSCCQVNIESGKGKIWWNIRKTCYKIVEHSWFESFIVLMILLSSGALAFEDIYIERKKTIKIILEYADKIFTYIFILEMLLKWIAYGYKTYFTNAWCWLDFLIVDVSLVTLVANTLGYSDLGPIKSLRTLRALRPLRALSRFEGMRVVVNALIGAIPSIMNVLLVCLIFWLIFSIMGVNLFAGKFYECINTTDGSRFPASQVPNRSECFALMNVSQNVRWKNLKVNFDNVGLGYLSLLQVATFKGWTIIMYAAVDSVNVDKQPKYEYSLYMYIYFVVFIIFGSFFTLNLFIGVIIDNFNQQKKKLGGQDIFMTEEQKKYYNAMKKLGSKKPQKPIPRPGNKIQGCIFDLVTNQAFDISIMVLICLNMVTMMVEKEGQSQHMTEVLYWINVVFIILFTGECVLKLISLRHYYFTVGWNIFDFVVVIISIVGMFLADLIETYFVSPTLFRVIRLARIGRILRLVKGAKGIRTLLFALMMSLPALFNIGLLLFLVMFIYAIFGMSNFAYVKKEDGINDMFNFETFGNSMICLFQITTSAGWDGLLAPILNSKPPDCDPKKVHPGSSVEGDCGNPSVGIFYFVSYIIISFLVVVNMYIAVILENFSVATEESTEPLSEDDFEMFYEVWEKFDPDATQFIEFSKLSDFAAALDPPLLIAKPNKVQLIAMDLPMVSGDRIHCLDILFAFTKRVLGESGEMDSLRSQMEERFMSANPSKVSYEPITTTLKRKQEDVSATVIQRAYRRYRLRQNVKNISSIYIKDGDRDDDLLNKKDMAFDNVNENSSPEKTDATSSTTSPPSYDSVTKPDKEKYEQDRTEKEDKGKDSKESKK
assay.overview: E-VIPR optical membrane potential assay with electrical stimulation
assay.context: sodium channel inhibition; read-out: Binned Activity Data (IC50)
pIC50: −log10 of the molar value.
experimental.endpoint: pIC50

Task item: Identify measured pIC50 associated with `Cn1ncc2c1-c1ccccc1OC21CCN(C(=O)c2ccccc2OC2CCOCC2)CC1`
Reply: ≥ 5.70

Continuing:
Task item: Provide one value: measured pIC50 of `COc1cc(C(C)(C)O)ccc1C(=O)N1CCC2(CC1)Oc1ccccc1-c1c2cnn1C`
Reply: ≥ 5.70

Task item: Answer with reported pIC50 of `COCCOc1ccc(C(=O)N2CCC3(CC2)Oc2ccccc2-c2c3cnn2CC(F)(F)F)cc1OC`
Reply: 5.30 to 5.70

Task item: Given the molecule `COc1ccc(C(=O)N2CCC3(CC2)Oc2cc(F)ccc2-n2c(C#N)ccc23)cc1C(F)(F)F` , write its reported pIC50.
Reply: < 5.30

Task item: Return the recorded pIC50 value; entry: `CCc1ccc(C(=O)N2CCC3(CC2)Oc2cc(CN)ccc2-n2cccc23)cc1OC`
Reply: < 5.30

Task item: Please supply the value of reported pIC50 for the item `O=C(c1ccc(S(=O)(=O)NC2CC2)cc1)N1CCC2(CC1)Oc1ccccc1-n1cccc12`
Reply: ≥ 5.70
